- Test system: rodent lifetime carcinogenesis bioassay, tumor incidence TD50
- EXPERIMENTAL PROTOCOL: carcinogenic potency in animals, long-term in vivo studies, CPDB compilation (AID 1745844)
- EXPERIMENTAL SETUP: mouse; strain CDF1; females; in feed; site: forestomach; lesion: papilloma; dosed 78 weeks; study length 104 weeks
READOUT LABEL: TD50

{"columns": ["STRUCTURE AS SMILES", "READOUT LABEL", "MEASURED VALUE"],
 "data": [
  ["NC(=O)C(=Cc1ccc([N+](=O)[O-])o1)c1ccco1", "TD50", "714 mg/kg/day"]
]}

###

- Test system: rodent lifetime carcinogenesis bioassay, tumor incidence TD50
- EXPERIMENTAL PROTOCOL: carcinogenic potency in animals, long-term in vivo studies, CPDB compilation (AID 1745844)
- EXPERIMENTAL SETUP: rat; strain Charles River albino; males; in feed; site: urinary bladder; lesion: transitional-cell carcinoma; dosed 104 weeks; study length 104 weeks
READOUT LABEL: TD50 (mg/kg/day)

{"columns": ["STRUCTURE AS SMILES", "MEASURED VALUE"],
 "data": [
  ["NC1CCCCC1", 280]
]}

###

- Test system: rodent lifetime carcinogenesis bioassay, tumor incidence TD50
- EXPERIMENTAL PROTOCOL: carcinogenic potency in animals, long-term in vivo studies, CPDB compilation (AID 1745844)
- EXPERIMENTAL SETUP: rat; strain Sprague-Dawley; males; in feed; site: forestomach; lesion: squamous-cell papilloma; dosed 117 weeks; study length 117 weeks

{"columns": ["STRUCTURE AS SMILES", "TD50"],
 "data": [
  ["CCOc1ccc(NC(C)=O)cc1", "2690 mg/kg/day"]
]}

###

- Tested on: rodent lifetime carcinogenesis bioassay, tumor incidence TD50
- EXPERIMENTAL PROTOCOL: carcinogenic potency in animals, long-term in vivo studies, CPDB compilation (AID 1745844)
- EXPERIMENTAL SETUP: mouse; strain BALB/cStCrlfC3Hf/Nctr; males; in drinking water; site: lung; lesion: several types; types named in the paper; dosed 52 weeks; study length 52 weeks

{"columns": ["STRUCTURE AS SMILES", "STUDY TARGET", "TD50, mg/kg/day"],
 "data": [
  ["Cc1cc(-c2ccc(N)c(C)c2)ccc1N", "rodent lifetime carcinogenesis bioassay, tumor incidence TD50", 684]
]}

###

- Test system: rodent lifetime carcinogenesis bioassay, tumor incidence TD50
- EXPERIMENTAL PROTOCOL: carcinogenic potency in animals, long-term in vivo studies, CPDB compilation (AID 1745844)
- EXPERIMENTAL SETUP: rat; strain Sprague-Dawley; males; in feed; site: liver; lesion: cystadenoma; dosed 46 weeks; study length 64 weeks

{"columns": ["STRUCTURE AS SMILES", "TD50"],
 "data": [
  ["O=CNNc1nc(-c2ccc([N+](=O)[O-])o2)cs1", "35.3 mg/kg/day"]
]}

###

- System: rodent lifetime carcinogenesis bioassay, tumor incidence TD50
- EXPERIMENTAL PROTOCOL: carcinogenic potency in animals, long-term in vivo studies, CPDB compilation (AID 1745844)
- EXPERIMENTAL SETUP: mouse; strain Charles River CD1; males; by gavage; site: lung; lesion: alveolar/bronchiolar adenoma; dosed 83 weeks; study length 83 weeks
Calls of active or inactive are those of the source. How the calls were made is not given here.

{"columns": ["STRUCTURE AS SMILES", "TD50"],
 "data": [
  ["OCC(CO)N[C@H]1C[C@](O)(CO)[C@@H](O)[C@H](O)[C@H]1O", "1370 mg/kg/day (inactive)"]
]}
